- target_or_system: α4β3δ GABAA receptor (Rattus norvegicus, UniProt P18506+P28471+P63079)
- Sequence (P28471 36-552, one chain of several): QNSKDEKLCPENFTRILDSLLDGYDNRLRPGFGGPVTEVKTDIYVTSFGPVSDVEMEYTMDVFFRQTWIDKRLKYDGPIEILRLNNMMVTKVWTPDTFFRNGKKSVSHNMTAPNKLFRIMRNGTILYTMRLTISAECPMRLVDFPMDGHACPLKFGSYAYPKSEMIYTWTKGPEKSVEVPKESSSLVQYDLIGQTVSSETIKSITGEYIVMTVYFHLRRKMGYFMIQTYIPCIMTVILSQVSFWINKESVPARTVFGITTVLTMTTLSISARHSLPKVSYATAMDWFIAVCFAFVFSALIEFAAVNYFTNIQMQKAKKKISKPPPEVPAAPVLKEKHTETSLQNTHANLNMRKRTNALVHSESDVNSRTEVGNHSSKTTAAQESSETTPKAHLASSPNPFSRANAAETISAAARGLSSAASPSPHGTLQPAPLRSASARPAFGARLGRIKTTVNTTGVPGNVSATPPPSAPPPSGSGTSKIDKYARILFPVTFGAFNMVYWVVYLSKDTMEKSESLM
- Sequence (P63079 26-473, one chain of several): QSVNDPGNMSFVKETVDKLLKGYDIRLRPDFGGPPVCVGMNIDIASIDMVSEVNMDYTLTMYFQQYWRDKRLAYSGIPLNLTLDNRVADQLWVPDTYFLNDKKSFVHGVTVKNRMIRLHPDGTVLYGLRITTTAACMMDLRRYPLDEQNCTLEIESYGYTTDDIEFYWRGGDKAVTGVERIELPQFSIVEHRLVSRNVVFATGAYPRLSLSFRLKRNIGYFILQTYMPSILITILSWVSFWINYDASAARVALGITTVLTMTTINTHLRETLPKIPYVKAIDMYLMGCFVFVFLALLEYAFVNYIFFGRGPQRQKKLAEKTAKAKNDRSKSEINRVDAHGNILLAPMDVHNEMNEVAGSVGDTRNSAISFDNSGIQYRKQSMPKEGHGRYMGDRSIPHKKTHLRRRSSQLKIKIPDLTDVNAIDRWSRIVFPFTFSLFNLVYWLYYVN
- measurement_notes: GABA-evoked currents through recombinant receptors in tsA 201 cells

smiles_input: CCOC(=O)Nc1ccc(NCc2ccc(F)cc2)nc1N
EC50, µM: 7

###

- target_or_system: α1β2δ GABAA receptor (Rattus norvegicus, UniProt P18506+P62813+P63138)
- Sequence (P62813 28-455): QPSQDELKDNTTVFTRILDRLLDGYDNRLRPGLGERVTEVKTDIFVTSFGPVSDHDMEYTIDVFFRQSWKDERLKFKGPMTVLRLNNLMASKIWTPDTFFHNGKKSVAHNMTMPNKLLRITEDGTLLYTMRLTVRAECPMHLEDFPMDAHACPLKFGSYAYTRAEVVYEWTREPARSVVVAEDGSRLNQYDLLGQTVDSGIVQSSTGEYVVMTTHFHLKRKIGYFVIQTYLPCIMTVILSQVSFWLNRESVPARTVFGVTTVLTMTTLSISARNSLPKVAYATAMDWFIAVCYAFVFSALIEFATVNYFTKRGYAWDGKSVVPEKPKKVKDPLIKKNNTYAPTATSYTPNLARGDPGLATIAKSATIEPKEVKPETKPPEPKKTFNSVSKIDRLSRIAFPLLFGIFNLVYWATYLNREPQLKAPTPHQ
- Sequence (P63138 25-474 limits assumed): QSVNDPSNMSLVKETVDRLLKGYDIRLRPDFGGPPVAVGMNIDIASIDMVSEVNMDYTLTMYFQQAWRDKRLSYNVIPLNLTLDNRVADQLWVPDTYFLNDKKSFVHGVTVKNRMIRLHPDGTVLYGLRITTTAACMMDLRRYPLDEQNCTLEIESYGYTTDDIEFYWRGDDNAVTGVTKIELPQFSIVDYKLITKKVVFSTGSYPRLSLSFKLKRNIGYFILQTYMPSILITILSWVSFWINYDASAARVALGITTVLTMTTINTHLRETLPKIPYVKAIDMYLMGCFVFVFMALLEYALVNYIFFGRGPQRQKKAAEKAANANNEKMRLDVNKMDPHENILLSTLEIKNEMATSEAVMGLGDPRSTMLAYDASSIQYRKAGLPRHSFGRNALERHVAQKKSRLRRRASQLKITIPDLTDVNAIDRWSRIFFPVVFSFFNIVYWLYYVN
- Sequence (P18506 17-449 limits assumed): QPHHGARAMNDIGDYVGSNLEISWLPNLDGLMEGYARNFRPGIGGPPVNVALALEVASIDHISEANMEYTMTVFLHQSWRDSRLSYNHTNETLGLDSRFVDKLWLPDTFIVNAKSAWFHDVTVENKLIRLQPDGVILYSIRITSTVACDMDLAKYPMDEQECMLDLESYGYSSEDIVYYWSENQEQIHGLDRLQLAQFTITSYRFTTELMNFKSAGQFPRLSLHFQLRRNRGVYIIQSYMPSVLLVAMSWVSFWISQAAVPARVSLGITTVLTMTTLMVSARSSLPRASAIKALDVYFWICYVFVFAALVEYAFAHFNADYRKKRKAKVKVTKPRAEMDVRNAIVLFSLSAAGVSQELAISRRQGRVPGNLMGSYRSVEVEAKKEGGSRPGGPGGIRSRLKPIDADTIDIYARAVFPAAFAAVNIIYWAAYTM
- measurement_notes: GABA-evoked currents through recombinant receptors in tsA 201 cells

smiles_input: CCOC(=O)Nc1ccc(NCc2ccc(F)cc2)nc1N
EC50 [µM]: 108

###

- System: aIPSCs in hippocampal neurons
- measurement_notes: Autaptic inhibitory postsynaptic currents (aIPSCs) in hippocampal microcultures
- Format: cell-based, rat
- experimental_conditions: Rattus norvegicus, Hippocampal neuron; n = 6; read-out: EC50 for the effect on aIPSC charge transfer
experimental_readout: EC50

smiles_input: CCOC(=O)Nc1ccc(NCc2ccc(F)cc2)nc1N
target_or_system: aIPSCs in hippocampal neurons
result: 12 µM
